Some compounds, each annotated with its measured activation.
# Subject Of Test: Thyrotropin-releasing hormone receptor (Homo sapiens)
# Test: qHTS for Small Molecule Agonists and Allosteric Enhancers of Human TRH Receptor: Primary Screen for Agonists. Note: 0% is about no effect.
# Condition Summary: TRHR cells, calcium flux fluo-8, FDSS agonist mode; at 2 µM; hits give high values
Out of some 360,000 compounds screened, about 650 (0.18%) were called active. This is one part of a sample in which actives are shown more often than they occur.

Worked examples follow.
Chemical String	activation
Cc1c(NC(=O)C(C)(C)C)cccc1-c1nc2ccccc2s1	1.53% (inactive)
CCc1ccc(N(CC)C(=O)CCn2cnc3onc(-c4ccc(F)cc4)c3c2=O)cc1	0.0408% (inactive)
CCc1ccccc1NC(=O)/C(=C/c1ccccc1)c1ccccc1	56.2% (active)

Okay, next one:
Query block: Give its activation value. Item: "CNC(=O)c1ccc(-c2nc(CN3CCc4ccccc43)c(C)o2)cc1"
Result block: -1.17% (inactive)
